These measurements were taken from ChEMBL document CHEMBL3751818.

- subject-of-test: Acetylcholinesterase (Electrophorus electricus, UniProt O42275)
- Sequence (O42275 whole entry): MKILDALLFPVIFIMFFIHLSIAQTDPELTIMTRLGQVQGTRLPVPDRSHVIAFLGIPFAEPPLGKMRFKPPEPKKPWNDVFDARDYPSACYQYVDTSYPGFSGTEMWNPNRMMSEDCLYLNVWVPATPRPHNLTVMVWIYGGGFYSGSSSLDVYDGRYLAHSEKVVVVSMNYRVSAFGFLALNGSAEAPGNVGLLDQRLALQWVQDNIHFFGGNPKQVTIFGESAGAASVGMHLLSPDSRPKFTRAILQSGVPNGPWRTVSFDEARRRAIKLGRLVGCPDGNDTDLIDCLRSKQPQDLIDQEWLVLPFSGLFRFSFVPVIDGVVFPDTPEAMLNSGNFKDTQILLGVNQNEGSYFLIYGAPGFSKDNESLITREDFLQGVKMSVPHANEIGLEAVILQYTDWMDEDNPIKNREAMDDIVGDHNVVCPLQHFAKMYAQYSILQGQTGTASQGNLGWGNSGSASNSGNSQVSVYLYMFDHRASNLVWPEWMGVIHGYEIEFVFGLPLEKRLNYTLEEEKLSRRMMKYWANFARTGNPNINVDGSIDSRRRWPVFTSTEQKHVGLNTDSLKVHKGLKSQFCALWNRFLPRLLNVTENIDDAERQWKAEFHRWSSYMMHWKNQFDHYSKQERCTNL
- method: Inhibition of electric eel AChE using acetylthiocholine iodide as substrate preincubated for 15 mins followed by substrate addition measured after 15 mins by Ellman's method
pIC50: −log10 of the molar value.
pIC50 reference
measured-property: pIC50

[
  {
    "chemical-string": "O=C(Cc1ccccc1[N+](=O)[O-])Nc1nc(-c2ccccc2)cs1",
    "measured-property": "pIC50",
    "observed-measurement": 5.08
  },
  {
    "chemical-string": "COc1ccccc1CC(=O)Nc1nc(-c2ccccc2)cs1",
    "measured-property": "pIC50",
    "observed-measurement": 5.28
  },
  {
    "chemical-string": "COc1ccc(CC(=O)Nc2nc(-c3ccccc3)cs2)cc1",
    "measured-property": "pIC50",
    "observed-measurement": 5.50
  },
  {
    "chemical-string": "O=C(Cc1ccc([N+](=O)[O-])cc1)Nc1nc(-c2ccccc2)cs1",
    "measured-property": "pIC50",
    "observed-measurement": 5.09
  },
  {
    "chemical-string": "O=C(Cc1ccc(F)cc1)Nc1nc(-c2ccccc2)cs1",
    "measured-property": "pIC50",
    "observed-measurement": 4.57
  },
  {
    "chemical-string": "Cc1ccc(CC(=O)Nc2nc(-c3ccccc3)cs2)cc1",
    "measured-property": "pIC50",
    "observed-measurement": 5.21
  },
  {
    "chemical-string": "O=C(Cc1ccccc1Cl)Nc1nc(-c2ccccc2)cs1",
    "measured-property": "pIC50",
    "observed-measurement": 4.64
  },
  {
    "chemical-string": "Cc1ccccc1CC(=O)Nc1nc(-c2ccccc2)cs1",
    "measured-property": "pIC50",
    "observed-measurement": 5.11
  },
  {
    "chemical-string": "O=C(Cc1ccc(Cl)cc1)Nc1nc(-c2ccccc2)cs1",
    "measured-property": "pIC50",
    "observed-measurement": 4.65
  },
  {
    "chemical-string": "O=C(Cc1ccccc1)Nc1nc(-c2ccccc2)cs1",
    "measured-property": "pIC50",
    "observed-measurement": 4.49
  }
]
